- system_name: PDGFR (Homo sapiens)
- Construct: SUGEN, Inc; host or cells: NIH 3T3 cell lysate; receptor captured on plate with monoclonal anti-PDGFR antibody 28D4C10
- Sequence (P09619 33-1106, species assumed): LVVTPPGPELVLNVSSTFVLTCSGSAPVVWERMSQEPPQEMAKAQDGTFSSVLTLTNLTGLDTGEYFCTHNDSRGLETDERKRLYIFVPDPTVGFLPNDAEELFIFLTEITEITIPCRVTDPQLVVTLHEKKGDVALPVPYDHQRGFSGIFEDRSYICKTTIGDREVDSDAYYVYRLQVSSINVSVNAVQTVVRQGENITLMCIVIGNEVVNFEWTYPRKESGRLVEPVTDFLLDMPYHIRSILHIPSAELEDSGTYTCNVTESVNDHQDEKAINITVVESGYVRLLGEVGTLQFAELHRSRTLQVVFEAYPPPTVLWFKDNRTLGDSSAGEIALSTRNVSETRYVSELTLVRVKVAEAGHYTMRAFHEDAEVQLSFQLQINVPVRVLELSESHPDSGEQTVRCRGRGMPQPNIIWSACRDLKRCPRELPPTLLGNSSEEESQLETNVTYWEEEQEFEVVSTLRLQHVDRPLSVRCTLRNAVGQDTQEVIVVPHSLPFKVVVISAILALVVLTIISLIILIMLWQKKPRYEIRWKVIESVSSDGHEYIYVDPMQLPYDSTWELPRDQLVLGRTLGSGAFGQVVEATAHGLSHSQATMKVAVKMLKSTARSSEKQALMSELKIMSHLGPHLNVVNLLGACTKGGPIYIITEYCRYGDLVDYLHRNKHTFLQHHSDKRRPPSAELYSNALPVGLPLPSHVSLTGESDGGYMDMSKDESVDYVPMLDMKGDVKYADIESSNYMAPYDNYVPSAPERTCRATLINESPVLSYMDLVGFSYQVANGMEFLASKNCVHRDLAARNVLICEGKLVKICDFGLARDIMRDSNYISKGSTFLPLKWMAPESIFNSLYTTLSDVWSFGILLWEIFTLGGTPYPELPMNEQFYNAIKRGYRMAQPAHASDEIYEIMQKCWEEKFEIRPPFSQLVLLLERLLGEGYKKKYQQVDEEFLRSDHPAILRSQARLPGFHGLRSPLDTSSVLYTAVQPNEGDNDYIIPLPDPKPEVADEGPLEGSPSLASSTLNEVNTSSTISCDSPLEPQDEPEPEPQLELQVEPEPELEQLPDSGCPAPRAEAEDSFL
- test_name: PDGFR bioassay (ELISA, in vitro kinase activity)
- Type: biochemical
- test_context: PDGFR-β expressing NIH 3T3 cell lysate; read-out: IC50 (μM) PDGF-R
measured_attribute: IC50 (µM)

P. O=C(CN1CCCC1)Nc1ccc(Nc2ncc(-c3ccsc3)cn2)cc1 [Example 29]
Q. Cc1ccc(Nc2ncc(-c3ccsc3)cn2)cc1NC(=O)c1ccc(CN2CCN(C)CC2)cc1 [Example 40]
R. O=C(CN1CCOCC1)Nc1cccc(Nc2ncc(-c3ccsc3)cn2)c1 [Example 61]
Which order do these items fall in when sorted by IC50 from largest to smallest? I would appreciate it if you listed the labels in the requested order.
Q, R, P
(Q: 2.6 µM, R: 0.94 µM, P: 0.43 µM)
